Below, each entry is listed alongside its reported pIC50.
Test system: L1210
Assay: In vitro Anti Neoplastic Activity against L1210 murine leukemia Cell lines
Type: functional, cell-based
Settings: Mus musculus
pIC50: −log10 of the molar value.

Here is how some compounds turned out for pIC50.
INSERT INTO measurements (compound, measured_endpoint, test_value) VALUES
  ('CC(=O)OC1C(CN(C)C/C=C\CN)OC(n2cnc3c(N)ncnc32)C1OC(C)=O (stereo not given)', 'pIC50', 4.70),
  ('CNC[C@H]1OC(n2cnc3c(N)ncnc32)[C@H](O)[C@@H]1O (stereo not given in full)', 'pIC50', '< 3.22'),
  ('CN(Cc1ccccc1CN)C[C@H]1OC(n2cnc3c(N)ncnc32)[C@H](O)[C@@H]1O (stereo not given in full)', 'pIC50', '< 3.22'),
  ('CN(C/C=C\CN)CC(CO)OC(CO)n1cnc2c(N)ncnc21 (stereo not given)', 'pIC50', '< 3.22');

Next compound, pIC50 to be filled in.
Record CN(Cc1ccc(CN)cc1)C[C@H]1OC(n2cnc3c(N)ncnc32)[C@H](O)[C@@H]1O (stereo not given in full) has L1210 pIC50 equal to < 3.22

* * *

System: HT-29
Experiment: In vitro anti Neoplastic Activity in Human Colon adenocarcinoma HT-29 Cell lines
Format: functional, cell-based
MEASURED_ENDPOINT: IC50

INSERT INTO measurements (compound, test_value) VALUES
  ('CN(Cc1ccc(CN)cc1)C[C@H]1OC(n2cnc3c(N)ncnc32)[C@H](O)[C@@H]1O (some centres not stated)', '> 100 µM');

Next compound, IC50 to be filled in.
Record `CN(C/C=C\CN)CCOCn1cnc2c(N)nc(N)nc21` has HT-29 IC50 equal to > 100 µM

* * *

System: MCF7
Assay: In vitro Antineoplastic Activity against Adriamycin resistant Human Breast adenocarcinoma MCF7-Adr Cell lines
Assay type: functional, cell-based
MEASURED_ENDPOINT: IC50 (µM)
Give your result in µM as a bare value.

Just so you know, measured IC50 for `CN(C/C=C\CN)C[C@H]1O[C@@H](n2cnc3c(N)ncnc32)[C@H](O)[C@@H]1O` came out at 200

* * *

Below, each entry is listed alongside its reported IC50.
Tested on: A121
Assay: In vitro Antineoplastic Activity against Human ovarian carcinoma A121 Cell lines
Type: functional, cell-based

INSERT INTO results (compound, assayed_target, measured_endpoint, test_value) VALUES
  ('CN(C/C=C\CN)C[C@H]1O[C@@H](n2cnc3c(N)ncnc32)[C@H](O)[C@@H]1O', 'A121', 'IC50', '> 100 µM');

Just so you know, measured IC50 for CNC[C@H]1OC(n2cnc3c(N)ncnc32)[C@H](O)[C@@H]1O (some centres not stated) came out at > 100 µM

* * *

System: Trypanosoma brucei rhodesiense
Assay: In vitro antitrypanosomal activity against Trypanosomal 243 (KETRI)strain
Format: functional, organism-based
Below, each entry is listed alongside its reported pIC50.
Hey, just a heads up that pIC50 is the negative log base 10 of the concentration in molar.

INSERT INTO results (compound, test_value) VALUES
  ('CN(C/C=C\CN)C[C@H]1O[C@@H](n2cnc3c(N)ncnc32)[C@H](O)[C@@H]1O', 7.40);

Next compound, pIC50 to be filled in.
Just so you know, measured pIC50 for CN(C/C=C\CN)CC1OC(n2cnc3c(N)ncnc32)CC1O (configuration not stated) came out at 5.54

* * *

System: HT-29
Experiment: In vitro Anti Neoplastic Activity in Human Colon adenocarcinoma HT-29 Cell lines
Assay type: functional, cell-based
MEASURED_ENDPOINT: IC50 (µM)
Give your result in µM as a bare value.

Just so you know, measured IC50 for CN(C/C=C\CN)CC(CO)OC(CO)n1cnc2c(N)ncnc21 (configuration not stated) came out at 112

* * *

Test system: HT-29
Assay: In vitro anti Neoplastic Activity in Human Colon adenocarcinoma HT-29 Cell lines;Value ranges from (3-30).
Assay type: functional, cell-based
MEASURED_ENDPOINT: IC50 (µM)
Give your result in µM as a bare value.

Just so you know, measured IC50 for CC(=O)OC1C(CN(C)C/C=C\CN)OC(n2cnc3c(N)ncnc32)C1OC(C)=O (stereo unspecified) came out at 30

* * *

Tested on: Trypanosoma brucei brucei
Experiment: In vitro anti trypanosomal activity against Trypanosomal 110 (EATRO)strain
Format: functional, organism-based
MEASURED_ENDPOINT: IC50 (µM)

Here is how some molecules turned out for IC50.
INSERT INTO results (molecule, test_value) VALUES
  ('CC(=O)OC1C(CN(C)C/C=C\CN)OC(n2cnc3c(N)ncnc32)C1OC(C)=O (stereo unspecified)', 0.014),
  ('CN(Cc1ccccc1CN)C[C@H]1OC(n2cnc3c(N)ncnc32)[C@H](O)[C@@H]1O (stereo partly specified)', 14);

[I] CN(C/C=C\CN)C[C@H]1O[C@@H](n2cnc3c(N)nc(N)nc32)[C@H](O)[C@@H]1O
[II] CN(C/C=C\CN)CCOCn1cnc2c(N)nc(N)nc21
[III] CC(=O)OCC(CN(C)C/C=C\CN)OC(COC(C)=O)n1cnc2c(N)ncnc21 (stereo unspecified)
[IV] CN(C/C=C\CN)CC(CO)OC(CO)n1cnc2c(N)ncnc21 (stereo unspecified)
Exercise: Rank the items in ascending order with respect to IC50. // format: requested-order list of labels
Key: III, I, II, IV
(III: 1.8 µM, I: 4.5 µM, II: 10 µM, IV: 16 µM)

* * *

Test system: A121
Assay: In vitro Anti Neoplastic Activity against Human ovarian carcinoma A121 Cell lines
Assay type: functional, cell-based
MEASURED_ENDPOINT: IC50 (µM)
Give your result in µM as a bare value.

Record CN(C/C=C\CN)CC(CO)OC(CO)n1cnc2c(N)ncnc21 (configuration not stated) has A121 IC50 equal to 41

* * *

System: A549
Test: In vitro Antineoplastic Activity against Human non small cell lung carcinoma A549 Cell lines
Type: functional, cell-based
MEASURED_ENDPOINT: pIC50
Hey, just a heads up that pIC50 is the negative log base 10 of the concentration in molar.

Record `CN(C/C=C\CN)C[C@H]1O[C@@H](n2cnc3c(N)ncnc32)[C@H](O)[C@@H]1O` has A549 pIC50 equal to 5.52

Origin of values: ChEMBL document CHEMBL1135645
